Field: selectivity ratio. Provide a value for each of the substances that follow.
Protocol Notes: Selectivity index, ratio of IC50 for antiproliferative activity against HEK293T cells assessed as reduction in cell viability to MIC for antibacterial activity against methicillin-resistant Staphylococcus aureus assessed as bacterial growth inhibition
Assay type: toxicity, cell-based
Assay Setup: human, read-out: Selectivity Index
One number for each entry.

// solved cases for selectivity ratio follow
> print(dat)
                    substance  observed.value
1      H-WARIARRAIRAWRRWW-NH2            26.7
2  H-KASVSVKVTASLSKAWTNSQ-NH2            6.67
3      H-RRPLARPLIRFIRRPW-NH2            6.67

Query `H-RRFFVRRVFFRRRRFF-OH` yields selectivity ratio of 6.67
